# Run description: Nuclear factor erythroid 2-related factor 2/antioxidant responsive element (Nrf2/ARE) small molecule agonists: qHTS cell viability counter screen in human keratinocytes (AID 1919968); note: nearly all actives have a fitted effect of over 55% in size
# Test parameters: KeratinoSens HaCaT ARE cells viability, CellTiter-Fluor, 24 h; series mostly up to 92.4 µM
Records with an inconclusive call do not appear. Calls of active or inactive are those of the source. Calls come from the whole dose curve; as a rule, active = well fitted cell-killing curve with a large enough effect in the repeat runs; inconclusive = weak or mixed curves, or effect the other way; inactive = flat fitted curve, though single readings scatter.
Give your call using only these classes: active, inactive

Example entries and their recorded answers appear below.
Compound: CCCCCCCCOc1ccc(C(=O)O)cc1
Classification: inactive
--
Compound: c1ccc(C(O[C@H]2CCCN(CCc3ccc4c(c3)OCO4)C2)c2ccccc2)cc1
Classification: inactive
--
Compound: O=C1c2ccccc2C(=O)N1CCl
Classification: inactive

Outcome logged for C[n+]1ccccc1/C=N/O in this assay: inactive

Query Nc1c2c(nc3ccccc13)CCCC2O (stereo not drawn) next inactive

Query O=C1c2ccccc2C(=O)c2cc(O)ccc21 next inactive

Query O=C(c1ccccc1)c1ccc(Cl)cc1 next inactive

Query COc1cc2c(cc1OC)C(=O)C(CC1CCN(Cc3ccccc3)CC1)C2 (stereo not drawn) next inactive

###

# Test system: 5-hydroxytryptamine receptor 2A (Homo sapiens) (UniProt P28223)
# Sequence (P28223 whole entry, looked up): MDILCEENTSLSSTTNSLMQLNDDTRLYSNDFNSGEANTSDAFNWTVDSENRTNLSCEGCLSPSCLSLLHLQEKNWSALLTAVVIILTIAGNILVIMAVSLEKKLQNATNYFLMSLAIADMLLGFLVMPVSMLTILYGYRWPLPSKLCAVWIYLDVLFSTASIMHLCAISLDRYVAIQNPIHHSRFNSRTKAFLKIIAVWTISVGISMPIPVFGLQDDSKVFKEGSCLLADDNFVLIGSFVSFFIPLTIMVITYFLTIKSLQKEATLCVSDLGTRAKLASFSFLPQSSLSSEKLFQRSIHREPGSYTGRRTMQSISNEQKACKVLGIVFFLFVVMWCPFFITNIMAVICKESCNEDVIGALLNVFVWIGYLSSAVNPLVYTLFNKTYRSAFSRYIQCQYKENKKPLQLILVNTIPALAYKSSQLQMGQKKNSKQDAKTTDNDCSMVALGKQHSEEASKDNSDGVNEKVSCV
# Run description: 5-hydroxytryptamine receptor 2A (HTR2A) small molecule agonists, cell-based qHTS assay (AID 1963587); note: nearly all actives have a fitted effect of over 30% in size
# Test parameters: HTR2A-CHO cells, calcium flux fluorescence, agonist mode; series mostly up to 76.8 µM
Results filed as inconclusive are left out. Activity calls are given as the source filed them. Calls follow the shape of the full dose curve.
Quantity: activation

Compound: CNC(=O)CN(CCN(CCN(CC(=O)[O-])CC(=O)NC)CC(=O)[O-])CC(=O)[O-].O.[Gd+3]
Reported measurement: inactive

Compound: CC(C)CC(C)CC(C)CC(C)COC(=O)c1ccccc1C(=O)OCC(C)CC(C)CC(C)CC(C)C (stereo not given)
Reported measurement: inactive

Compound: Nc1ccc(S(=O)(=O)Nc2ccccn2)cc1
Reported measurement: inactive

Compound: c1cc[nH]c1
Reported measurement: inactive

Compound: CCCCCCC1CCCC(=O)O1 (stereo not given)
Reported measurement: inactive

Please report the recorded activation for CC(C)(O)CCc1ccccc1 . inactive

Query N#Cc1ccc(CC(=O)c2cccc(C(F)(F)F)c2)cc1 next inactive

Query CCn1nc(Cc2ccccc2)cc1C1CCN(C[C@H]2C[C@H](N(C)[C@@H](C(=O)O)C(C)C)C[C@@H]2c2cccc(F)c2)CC1 next inactive

Query COC(=O)c1cc(C(=O)OC)cc(S(=O)(=O)O)c1 next inactive

Query CCOC(=O)CC(C)O (stereo not given) next inactive

Query CCOC(=O)[C@H](CCc1ccccc1)N[C@H]1CS[C@H](c2cccs2)CN(CC(=O)O)C1=O next inactive

Query O=C(Nc1cccc2c(=O)cc(-c3nn[nH]n3)oc12)c1ccc(OCCCCc2ccccc2)cc1 next inactive

Query O=[N+]([O-])c1cccc(I)c1 next inactive

###

# Run description: p53 small molecule agonists, cell-based qHTS assay with rat liver microsomes: qHTS cell viability counter screen (AID 1963580); note: nearly all actives have a fitted effect of over 45% in size
# Test parameters: p53RE-bla HCT-116 + rat microsomes, ATP viability, 16 h; series mostly up to 66 µM
Inconclusive results are not listed. Active and inactive are the calls of the source. Calls come from the whole dose curve.
Quantity: activity change, negative = cytotoxicity

Solved entries (count: 10):
Compound: CCCC1CCC(=O)O1 (configuration not stated)
Reported measurement: inactive
//
Compound: Cc1ccnc(N)c1
Reported measurement: inactive
//
Compound: Clc1nc(C(Cl)(Cl)Cl)c(Cl)c(Cl)c1Cl
Reported measurement: inactive
//
Compound: CC(CN(C)C)C(C)(O)Cc1ccc(Cl)cc1 (configuration not stated)
Reported measurement: inactive
//
Compound: Cn1cccc1
Reported measurement: inactive
//
Compound: CCCCCCOC(=O)CCC
Reported measurement: inactive
//
Compound: CNC(=O)c1c(I)c(NC(=O)CCCCC(=O)Nc2c(I)c(C(=O)O)c(I)c(C(=O)NC)c2I)c(I)c(C(=O)O)c1I
Reported measurement: inactive
//
Compound: C[C@]12C=CC(=O)C=C1[C@@H](F)C[C@@H]1[C@@H]2[C@@H](O)C[C@@]2(C)[C@H]1CC[C@]2(O)C(=O)CO
Reported measurement: inactive
//
Compound: O=C(CCCN1CCC(O)(c2ccc(Br)cc2)CC1)c1ccc(F)cc1
Reported measurement: inactive
//
Compound: CCN(CC)CCSC(=O)C(c1ccccc1)c1ccccc1
Reported measurement: inactive

Please report the recorded activity change, negative = cytotoxicity for CCCCC(CC)(CO)CO . inactive

Query C=C/C(C)=C/C/C=C(\C)CCC=C(C)C next inactive

Query COc1cc2c(N3CCN(C(=O)Nc4ccc(OC(C)C)cc4)CC3)ncnc2cc1OCCCN1CCCCC1 next inactive
